B1: LINE1-full (parent)
chain: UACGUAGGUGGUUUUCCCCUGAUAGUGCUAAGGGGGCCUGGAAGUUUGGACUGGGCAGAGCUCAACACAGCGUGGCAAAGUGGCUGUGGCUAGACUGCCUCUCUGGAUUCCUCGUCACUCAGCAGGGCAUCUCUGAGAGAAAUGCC

- Variants of: B1
- assaySummary: self-cleavage, relative activity (ratio to wild type); higher = more cleavage; in vitro, sequencing; the parent is a self-cleaving ribozyme
Mark not met for self-cleavage values under 0.4, and met for everything at or above.

Some solved cases for reference:
UACGUAGGUGGUUUUCCCCUGAUAGCGCCAAGGGGGCCUGGAAGUUUGGACUGGGCAGAGCUCAACACAGCGUGGCAAAGUGGCUGUGGCUAGACUGCCUCUCUGGAUUCCUCGUCACUCAGCAGGGCAUCUCUGAGAGAAAUGCC [U26C U29C]	met
UACGUAGGUGGUUUUCCCCUGAUAGUGCUAAGGGAGCCUGGAAGUUUGGACAGGGCAGAGCUCAACACAGCGUGGCAAAGUGGCUGUGGCUAGACUGCCUCUCUGGAUUCCUCGUCACUCAGCAGGGCAUCUCUGAGAGAAAUGCC [G35A U52A]	met
UACGUAGGUGGUUUUCCCCUGAUAGUGCUAAGGGGGCCUGGGAGUUUGGACUGUGCAGAGCUCAACACAGCGUGGCAAAGUGGCUGUGGCUAGACUGCCUCUCUGGAUUCCUCGUCACUCAGCAGGGCAUCUCUGAGAGAAAUGCC [A42G G54U]	met
UACGUAGGUGGUUUUCCCCUGAUAGUGCUAAGUGGGCCUGGAAGUUCGGACUGGGCAGAGCUCAACACAGCGUGGCAAAGUGGCUGUGGCUAGACUGCCUCUCUGGAUUCCUCGUCACUCAGCAGGGCAUCUCUGAGAGAAAUGCC [G33U U47C]	met
UACGUAGGUGGUUUUCCCCUGAUAGUGCUAAGGGGGCCUGGAAGUUUGGACUGGGCAGAGCUCAACACAGCGUGGCAAAGUGGCUGGGGCUAGUCUGCCUCUCUGGAUUCCUCGUCACUCAGCAGGGCAUCUCUGAGAGAAAUGCC [U87G A94U]	not met
UACGUAGGUGGUUUUCCCCUGAUAGUGCUAAGGGCGCCUGGAAGUUUGGACUGGGCAGAGCUCAACACAGCGUGGCAAAGUGGCUGUGGCUAGACCGCCUCUCUGGAUUCCUCGUCACUCAGCAGGGCAUCUCUGAGAGAAAUGCC [G35C U96C]	not met
UACGUAGGUGGUUUUCCCCUGAUAGUGCUAAGGGGGCCUGGAAGUUUGGACUGGGCAGAGCUCAACACAGCGUGGCAAAGUGGCUGUGGCUAGACUGCCUCUCUGGAUUCCUCGUCACUCAGCGGGGCAUCUCUUAGAGAAAUGCC [A124G G135U]	met
UACGUAGGUGGUUUUCCCCUGAUAGUGCUAAGGGGGCCUGGAAGUUUGGACUGGGCAGAGCUCAACACAUCGUGGCAAAGUGGCUGUGGCUAGACUGCCUCACUGGAUUCCUCGUCACUCAGCAGGGCAUCUCUGAGAGAAAUGCC [G70U U102A]	not met
UACGUAGGUGGUUUUCCCCUGAUAGUGCUAAGGGGGCCUAGAAGUUUGGACUGGGCAGAGCUCAACACAGCGUUGCAAAGUGGCUGUGGCUAGACUGCCUCUCUGGAUUCCUCGUCACUCAGCAGGGCAUCUCUGAGAGAAAUGCC [G40A G74U]	met
UACGUAGGUGGUUUACCCCUGAUAGUGCUAAGGGGGCCUGGAAGCUUGGACUGGGCAGAGCUCAACACAGCGUGGCAAAGUGGCUGUGGCUAGACUGCCUCUCUGGAUUCCUCGUCACUCAGCAGGGCAUCUCUGAGAGAAAUGCC [U15A U45C]	met

# check: self-cleavage of UACGUAGGCGGUUUUCCCCUGAUAGUGCUAAGGGGGCCUGGAAGUUUGGACUGGGCAGAGCUCAACACAGCGUGGCAAAGUGGCUGUGGCUUGACUGCCUCUCUGGAUUCCUCGUCACUCAGCAGGGCAUCUCUGAGAGAAAUGCC [U9C A92U] is greater than or equal to 0.4 not met

I'd appreciate it if you could say whether UACGUAAGUGGUUUUCCCCUGAUAGUGCUAAGGGGGCCUGGAAGUUUGGACUGGGCAGAGCUCAACACAGCGUGGCAAAGUGGCUGUGGCUAGACUGCCUCUCUGGAUUCCUCGUCACUCAGCAGGGCGUCUCUGAGAGAAAUGCC [G7A A129G] has self-cleavage at least equal to 0.4. met

// inclusive: self-cleavage at least 0.4? input: UACGUAGGUGGUUUUCCCCUGAAAGUGCUAAGGGGGCCUGGAAGUUUGGACUGGGCAGAGCUCAACACAGCGUGGCAAAGUGGCUGUGGCUAAACUGCCUCUCUGGAUUCCUCGUCACUCAGCAGGGCAUCUCUGAGAGAAAUGCC [U23A G93A] not met
